All values here come from patent US20250051321A1.

Assay: Pharmacokinetic test in mice
Format: in vivo, ICR mice
Settings: male, ICR, mouse, plasma, 5 mg/kg, PO - 5 mpk

| COMPOUND | MEASURE UNIT | AUC |
| --- | --- | --- |
| Cc1cc(N2CC3(CN(C(=O)C(C)(C)O)C3)C2)cc2c(N(C)c3nc(-c4ccc(F)cc4)c(C#N)s3)c3c(nc12)COC3 [Example C31] | ng·h/mL | 32300 |
| CN(c1nc(-c2ccc(F)cc2)c(C#N)s1)c1c2c(nc3c(F)cc(N4CC5(CN(C(=O)C(C)(C)O)C5)C4)cc13)CC2 [Example C28] | ng·h/mL | 125000 |
| Cc1cc(N2CC3(CN(C(=O)C(C)(C)O)C3)C2)cc2c(N(C)c3nc(-c4ccc(F)cc4)c(C#N)s3)c3c(nc12)CCO3 [Example C27] | ng·h/mL | 27600 |
| CN(c1nc(-c2ccc(F)cc2)c(C#N)s1)c1c2c(nc3c(F)cc(N4CC5(CN(C(=O)C(C)(C)O)C5)C4)cc13)[C@@H](O)CC2 (single isomer, unassigned) [Example E16-a] | ng·h/mL | 17000 |
| Cc1cc(N2CC3(CN(C(=O)C(C)(C)O)C3)C2)cc2c(N(C)c3nc(-c4ccc(F)cc4)c(C#N)s3)c3c(nc12)C(O)CC3 (centres unmarked) [Example E26] | ng·h/mL | 31300 |
